Molecular target: human Serotonin, 5-Hydroxytryptamine Receptor 3 (5HT3), HTR3A (gene 3359)
Experiment: NVS_LGIC_h5HT3: NovaScreen (NVS) Ligand-Gated Ion Channel Assay for human Serotonin, 5-Hydroxytryptamine Receptor 3 (5HT3) (AID 2283325)
Records with an inconclusive call do not appear. Active and inactive are the calls of the source. The calls were made as follows: active = hit-call score of the fitted dose curve at least 0.9, where 1 is the maximum; inconclusive = response in the unintended direction; inactive = score below 0.9.
Labels: label 1 for active, label 0 for inactive

                                   molecule  label_value
0  COc1cccc([C@H](O)C2CCN(CCc3ccc(F)cc3)CC2)c1OC      label 0
1            Clc1cc(Cl)c2c(c1)N=C1CCCCCN1C2      label 1
2  CCOC(=O)O[C@H](C)OC(=O)c1ccc2c(c1)cc(C(=O)NC1CCN(C(C)C)CC1)n2Cc1cc(-c2ccc(Cl)s2)on1      label 0
3  CC(C)(O)c1ccc(CNC(=O)c2cccnc2Oc2ccc3nonc3c2)cc1      label 0

// data source = PubChem BioAssay (EPA / NIEHS)
